Examples of binders with documented kon follow.
MEASUREMENT_TARGET: T1, Human OSM (human, UniProt P13725 26-221)
T1 construct: Recombinant human OSM; also called hOSM; human Oncostatin M
T1 sequence: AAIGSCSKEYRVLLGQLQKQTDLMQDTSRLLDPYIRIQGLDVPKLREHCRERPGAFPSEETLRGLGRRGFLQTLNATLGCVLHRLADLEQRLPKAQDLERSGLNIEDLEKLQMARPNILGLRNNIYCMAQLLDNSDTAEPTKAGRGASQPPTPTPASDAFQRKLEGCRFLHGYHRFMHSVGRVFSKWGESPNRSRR
RUN_DESCRIPTION: BIAcore kinetics, transfection supernatant
Just the number please, in M⁻¹ s⁻¹, no unit attached.

Humanised 10G8 H1L1 (antibody, V domains shown) VH: EMQLVESGGGLVQPGGSLRLSCAASGFTFSNYAMSWVRQAPGKGLEWVATISDGGSFTYYLDNVRGRFTISRDNAKNSLYLQMNSLRAEDTAVYYCARDVGHTTFWYFDVWGRGTLVTVSS VL: DIVMTQSPDSLAVSLGERATINCRASKSVSAAGYNFMHWYQQKPGQPPKVLIYYASNLESGVPDRFSGSGSGTDFTLTISSLQAEDVAVYYCLHSREFPFTFGGGTKVEIK    400000
Humanised 10G8 H2L1 (antibody, V domains shown) VH: EVQLVESGGGLVQPGGSLRLSCAASGFTFSNYAMSWVRQAPGKGLEWVATISDGGSFTYYLDNVRGRFTISRDNAKNSLYLQMNSLRAEDTAVYYCARDVGHTTFWYFDVWGSGTLVTVSS VL: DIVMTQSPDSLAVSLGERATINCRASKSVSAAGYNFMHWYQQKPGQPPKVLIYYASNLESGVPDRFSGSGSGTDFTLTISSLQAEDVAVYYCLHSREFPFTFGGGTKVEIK    394000
Humanised 10G8 H2L0 (antibody, V domains shown) VH: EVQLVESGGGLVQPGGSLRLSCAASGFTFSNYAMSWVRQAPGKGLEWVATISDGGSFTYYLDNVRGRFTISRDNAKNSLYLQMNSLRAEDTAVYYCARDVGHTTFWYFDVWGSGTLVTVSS VL: DIVMTQSPDSLAVSLGERATINCRASKSVSAAGYNFMHWYQQKPGQPPKLLIYYASNLESGVPDRFSGSGSGTDFTLTISSLQAEDVAVYYCLHSREFPFTFGGGTKVEIK    363000
Humanised 10G8 H1L4 (antibody, V domains shown) VH: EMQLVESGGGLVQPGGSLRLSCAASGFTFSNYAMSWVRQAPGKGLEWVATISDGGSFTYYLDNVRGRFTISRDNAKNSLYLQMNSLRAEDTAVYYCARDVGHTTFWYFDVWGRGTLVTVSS VL: DIVMTQSPDSLAVSLGERATINCRASKSVSAAGYNFMHWYQQKPGQPPKVLIYYASNLESGVPDRFSGSGSGTDFTLTISSLQAEDVVVYYCLHSREFPFTFGGGTNVEIK    377000

Would you kindly look at the next entry?
Input: Reported kon, binder Humanised 10G8 H2L2 (antibody, V domains shown) VH: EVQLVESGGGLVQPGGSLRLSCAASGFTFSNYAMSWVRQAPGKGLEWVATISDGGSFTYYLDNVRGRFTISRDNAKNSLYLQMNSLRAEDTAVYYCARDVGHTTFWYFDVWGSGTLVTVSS VL: DIVMTQSPDSLAVSLGERATINCRASKSVSAAGYNFMHWYQQKPGQPPKLLIYYASNLESGVPDRFSGSGSGTDFTLTISSLQAEDVVVYYCLHSREFPFTFGGGTKVEIK : ____
Output: 368000
